# pEC50 values compiled below
Test system: white-faced saki Tas2R16 (wild-type, 172N)
Type: cell-based, white-faced saki (Pithecia pithecia)
pEC50 field: float, defined as -log10 of concentration (mol/L).

>>> df
                                   compound  measured_result
0  O=Cc1ccccc1O[C@@H]1O[C@H](CO)[C@@H](O)[C@H](O)[C@H]1O [helicin]             3.30

Then there is this compound:
Consider the compound OCc1ccccc1O[C@@H]1O[C@H](CO)[C@@H](O)[C@H](O)[C@H]1O [salicin] . State its measured pEC50.
3.29
